Origin of the recorded values: paper PMC9412374

- Subject of test: PI3Kα (Homo sapiens, UniProt P42336)
- Construct: purchased Carna Biosciences
- Sequence (P42336 whole entry): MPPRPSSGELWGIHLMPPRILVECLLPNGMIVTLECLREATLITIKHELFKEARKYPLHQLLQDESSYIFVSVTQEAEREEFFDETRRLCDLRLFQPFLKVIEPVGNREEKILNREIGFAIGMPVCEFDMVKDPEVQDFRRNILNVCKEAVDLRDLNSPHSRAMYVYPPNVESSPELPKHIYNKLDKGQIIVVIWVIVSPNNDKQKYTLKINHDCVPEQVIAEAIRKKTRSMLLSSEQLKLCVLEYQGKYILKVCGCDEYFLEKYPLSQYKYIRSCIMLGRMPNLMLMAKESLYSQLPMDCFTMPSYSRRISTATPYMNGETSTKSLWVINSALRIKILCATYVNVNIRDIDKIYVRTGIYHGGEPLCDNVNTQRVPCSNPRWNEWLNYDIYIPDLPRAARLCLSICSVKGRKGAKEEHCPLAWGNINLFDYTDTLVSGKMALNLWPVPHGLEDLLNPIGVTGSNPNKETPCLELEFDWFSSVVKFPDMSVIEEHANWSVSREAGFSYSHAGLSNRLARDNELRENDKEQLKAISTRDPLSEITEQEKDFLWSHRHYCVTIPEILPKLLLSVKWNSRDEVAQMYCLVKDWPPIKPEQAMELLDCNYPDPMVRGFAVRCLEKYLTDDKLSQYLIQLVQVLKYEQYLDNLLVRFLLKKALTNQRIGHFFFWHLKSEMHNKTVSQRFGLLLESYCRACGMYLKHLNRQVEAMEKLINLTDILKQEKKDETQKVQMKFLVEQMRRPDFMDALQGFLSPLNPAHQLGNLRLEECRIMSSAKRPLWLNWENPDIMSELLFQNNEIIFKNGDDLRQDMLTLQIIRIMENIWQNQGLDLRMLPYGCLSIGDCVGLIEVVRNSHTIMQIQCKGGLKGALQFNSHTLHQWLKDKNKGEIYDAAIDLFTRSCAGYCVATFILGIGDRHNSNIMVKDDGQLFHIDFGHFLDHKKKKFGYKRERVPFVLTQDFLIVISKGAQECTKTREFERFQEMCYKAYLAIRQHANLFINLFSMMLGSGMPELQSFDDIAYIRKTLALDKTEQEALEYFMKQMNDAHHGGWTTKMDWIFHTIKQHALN
- Sequence (P27986 whole entry partner): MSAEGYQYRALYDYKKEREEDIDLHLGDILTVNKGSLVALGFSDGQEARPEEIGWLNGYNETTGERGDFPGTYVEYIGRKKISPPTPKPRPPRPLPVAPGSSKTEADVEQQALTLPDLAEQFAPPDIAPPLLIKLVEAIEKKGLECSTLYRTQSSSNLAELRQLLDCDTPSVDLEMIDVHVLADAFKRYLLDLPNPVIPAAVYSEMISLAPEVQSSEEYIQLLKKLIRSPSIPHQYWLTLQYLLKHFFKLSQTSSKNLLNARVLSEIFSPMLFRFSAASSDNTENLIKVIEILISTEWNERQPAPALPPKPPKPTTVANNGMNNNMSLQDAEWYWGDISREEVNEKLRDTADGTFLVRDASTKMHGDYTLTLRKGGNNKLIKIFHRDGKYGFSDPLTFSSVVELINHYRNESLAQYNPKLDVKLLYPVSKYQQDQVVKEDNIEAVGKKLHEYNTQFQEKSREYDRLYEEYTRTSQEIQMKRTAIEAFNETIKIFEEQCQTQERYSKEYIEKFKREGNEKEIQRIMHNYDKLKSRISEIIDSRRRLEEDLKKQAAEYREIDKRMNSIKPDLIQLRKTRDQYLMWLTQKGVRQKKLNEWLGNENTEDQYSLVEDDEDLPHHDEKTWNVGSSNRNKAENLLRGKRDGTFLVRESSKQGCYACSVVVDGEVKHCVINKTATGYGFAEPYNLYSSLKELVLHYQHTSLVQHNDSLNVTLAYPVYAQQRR
- Assay summary: In vitro kinase inhibition assay for PI3K (ADP-Glo), PI3Kα
- Assay type: biochemical
- Measurement setup: ratio of IC50 PI3Kα to IC50 PI3Kδ
Class definitions on Fold Selectivity α/δ: bottom range: < 50; center range: ≥ 50 and < 300; top range: ≥ 300

Which bin should I file `CC(C)(O)C1CCN(Cc2cc3nc(-c4ccnc5[nH]ccc45)cc(N4CCOCC4)n3n2)CC1` under?
top range

Which bin should I file `CN(C)C1CCN(Cc2cc3nc(-c4cccc5[nH]ccc45)cc(N4CCOCC4)n3n2)CC1` under?
center range

Which bin should I file `CCNC(=O)NC1CCN(Cc2cc3nc(-c4cccc5[nH]ccc45)cc(N4CCOCC4)n3n2)CC1` under?
bottom range

Which bin should I file `Cc1cc2nc(-n3c(C(F)F)nc4ccccc43)cc(N3CCOCC3)n2n1` under?
bottom range

Which bin should I file `CC(C)(C)C1CCN(Cc2cc3nc(-c4cccc5[nH]ccc45)cc(N4CCOCC4)n3n2)CC1` under?
center range

Which bin should I file `Cc1cc2nc(-c3cccc4[nH]ccc34)cc(N3CCOCC3)n2n1` under?
bottom range

Which bin should I file `CC(C)(O)C1CCN(Cc2cc3nc(-c4cccc5[nH]ccc45)cc(N4CCOCC4)n3n2)CC1` under?
top range

Which bin should I file `CC(C)(C)N1CCN(Cc2cc3nc(-c4ccnc5[nH]ccc45)cc(N4CCOCC4)n3n2)CC1` under?
center range

Which bin should I file c1cc(-c2cc(N3CCOCC3)n3nc(CN4CC5CC4CN5C4COC4)cc3n2)c2cc[nH]c2c1 (stereo not drawn) under?
top range

Which bin should I file `O=C(C1CC1)N1CCN(Cc2cc3nc(-c4cccc5[nH]ccc45)cc(N4CCOCC4)n3n2)CC1` under?
center range

Which bin should I file `COC(=O)C1CCN(Cc2cc3nc(-c4cccc5[nH]ccc45)cc(N4CCOCC4)n3n2)CC1` under?
center range

Which bin should I file `c1cc(-c2cc(N3CCOCC3)n3nc(CN4CCN(C5COC5)CC4)cc3n2)c2cc[nH]c2c1` under?
top range

Which bin should I file `CC(C)(C(N)=O)N1CCN(Cc2cc3nc(-c4cccc5[nH]ccc45)cc(N4CCOCC4)n3n2)CC1` under?
top range

Which bin should I file `CN1CCN(Cc2cc3nc(-c4cccc5[nH]ccc45)cc(N4CCOCC4)n3n2)CC1` under?
center range

Which bin should I file `CCN1CCN(Cc2cc3nc(-c4cccc5[nH]ccc45)cc(N4CCOCC4)n3n2)CC1` under?
top range

Which bin should I file `CC(C)(O)C1CCN(Cc2cc3nc(-c4cncc5[nH]ccc45)cc(N4CCOCC4)n3n2)CC1` under?
center range

Which bin should I file `Cc1cc2nc(-c3ccc(N)nc3)cc(N3CCOCC3)n2n1` under?
bottom range

Which bin should I file `CC(C)(C)N1CCN(Cc2cc3nc(-c4cccc5[nH]ccc45)cc(N4CCOCC4)n3n2)CC1` under?
top range

Which bin should I file `CC(C)(C)N1CCN(Cc2cc3nc(-c4c(F)ccc5[nH]ccc45)cc(N4CCOCC4)n3n2)CC1` under?
top range

Which bin should I file `c1cc(-c2cc(N3CCOCC3)n3nc(CN4CCN(CC5CC5)CC4)cc3n2)c2cc[nH]c2c1` under?
center range

Which bin should I file `O=S1(=O)CCN(Cc2cc3nc(-c4cccc5[nH]ccc45)cc(N4CCOCC4)n3n2)CC1` under?
bottom range

Which bin should I file `CS(=O)(=O)N1CCN(Cc2cc3nc(-c4cccc5[nH]ccc45)cc(N4CCOCC4)n3n2)CC1` under?
bottom range

Which bin should I file `c1cc(-c2cc(N3CCOCC3)n3nc(CN4CCN(C5CCCC5)CC4)cc3n2)c2cc[nH]c2c1` under?
top range

Which bin should I file `Cc1cc2nc(-n3c(C)nc4ccccc43)cc(N3CCOCC3)n2n1` under?
bottom range

Which bin should I file `CCc1nc2ccccc2n1-c1cc(N2CCOCC2)n2nc(C)cc2n1` under?
bottom range

Which bin should I file `Cc1cc2nc(-c3cn[nH]c3)cc(N3CCOCC3)n2n1` under?
bottom range

Which bin should I file `Cc1cc2nc(-c3cccc4[nH]ncc34)cc(N3CCOCC3)n2n1` under?
bottom range

Which bin should I file `CC(C)(C)N1CCN(Cc2cc3nc(-c4cncc5[nH]ccc45)cc(N4CCOCC4)n3n2)CC1` under?
top range

Which bin should I file `c1cc(-c2cc(N3CCOCC3)n3nc(CN4CCN(C5CC5)CC4)cc3n2)c2cc[nH]c2c1` under?
top range

Which bin should I file `CC(C)(O)C1CCN(Cc2cc3nc(-c4c(F)ccc5[nH]ccc45)cc(N4CCOCC4)n3n2)CC1` under?
top range
